# Tested on: Panc 05.04 cells (pancreatic cancer cells; Q699H and K700E mutations in SF3B1)
# Assay notes: Cell viability assay (CellTiter-Glo, 72 hr), Panc 05.04 cells
# Type: cell-based
# Details: Panc 05.04 cells (mutant SF3B1); read-out: Panc 05.04 (mt SF3B1 cells), GI50
What GI50 was measured for each of the following?
Provide only the numeric value, understood in nM.

Data request: Return reported GI50; argument: `C/C(=C\C=C\[C@@H](C)c1ccccn1)[C@H]1OC(=O)C[C@H](O)CC[C@@](C)(O)[C@@H](OC(=O)N2CCN(C(C)(C)C)CC2)/C=C/[C@@H]1C`
Data returned: 66

Data request: Return reported GI50; argument: `CC(=O)O[C@H]1/C=C/[C@H](C)[C@@H](/C(C)=C/C=C/[C@@H](C)COC(=O)N2CCC[C@@H]2C)OC(=O)C[C@H](O)CC[C@@]1(C)O`
Data returned: 52.6

Data request: Return reported GI50; argument: CC(=O)O[C@H]1/C=C/[C@H](C)[C@@H](/C(C)=C/C=C/C(C)(O)CCc2ccc(O)cc2)OC(=O)C[C@H](O)CC[C@@]1(C)O (stereo partly drawn)
Data returned: 249

Data request: Return reported GI50; argument: `C/C(=C\C=C\[C@@H](C)COC(=O)N1C[C@H](O)[C@@H](O)C1)[C@H]1OC(=O)C[C@H](O)CC[C@@](C)(O)[C@@H](OC(=O)N2CCN(C3CCCCCC3)CC2)/C=C/[C@@H]1C`
Data returned: 74.6

Data request: Return reported GI50; argument: `CC[C@H](O)[C@@H](C)[C@H]1O[C@@H]1C[C@@](C)(O)/C=C/C=C(\C)[C@H]1OC(=O)C[C@H](O)CC[C@@](C)(OC(C)=O)[C@@H](OC(=O)N2CCNCC2)/C=C/[C@@H]1C`
Data returned: 26.8

Data request: Return reported GI50; argument: `C/C(=C\C=C\[C@@H](C)c1cccnc1)[C@H]1OC(=O)C[C@H](O)CC[C@@](C)(O)[C@@H](OC(=O)N2CCN(C3CCCCCC3)CC2)/C=C/[C@@H]1C`
Data returned: 11

Data request: Return reported GI50; argument: `C/C(=C\C=C\[C@@H](C)COC(=O)N1CCC[C@H]1CF)[C@H]1OC(=O)C[C@H](O)CC[C@H](C)[C@@H](OC(=O)N2CCN(C)CC2)/C=C/[C@@H]1C`
Data returned: 0.339

Data request: Return reported GI50; argument: C/C(=C\C=C\C(C)c1cccnc1)[C@H]1OC(=O)C[C@H](O)CC[C@@](C)(O)[C@@H](OC(=O)N2CCN(C3CCCCCC3)CC2)/C=C/[C@@H]1C (stereo partly drawn)
Data returned: 10.4

Data request: Return reported GI50; argument: `C/C(=C\C=C\[C@@H](C)COC(=O)N1CCCC1)[C@H]1OC(=O)CCCCC[C@@H](OC(=O)N2CCN(C3CCCCCC3)CC2)/C=C/[C@@H]1C`
Data returned: 170

Data request: Return reported GI50; argument: `CC(=O)O[C@H]1/C=C/[C@H](C)[C@@H](/C(C)=C/C=C/[C@](C)(O)CCc2ccccc2)OC(=O)C[C@H](O)CC[C@@]1(C)O`
Data returned: 314

Data request: Return reported GI50; argument: `C/C(=C\C=C\[C@@H](C)COC(=O)N1CCC[C@H]1CO)[C@H]1OC(=O)C[C@H](O)CC[C@@](C)(O)[C@@H](OC(=O)N2CCN(C)CC2)/C=C/[C@@H]1C`
Data returned: 20.3

###

# Tested on: Panc 05.04 cells (pancreatic cancer cells; Q699H and K700E mutations in SF3B1)
# Assay notes: Cell viability assay (CellTiter-Glo, 72 hr), Panc 05.04 cells
# Type: cell-based
# Details: Panc 05.04 cells (mutant SF3B1); read-out: Panc 05.04 (mt SF3B1 cells), GI50
Response field label: string, one of yes (1) (GI50 strictly below 0.05 µM) or no (0).

Data request: Confirm or reject: GI50 of `C/C(=C\C=C\[C@@H](C)COC(=O)n1ccc2ccccc21)[C@H]1OC(=O)C[C@H](O)CC[C@@](C)(O)[C@@H](OC(=O)N2CCN(C)CC2)/C=C/[C@@H]1C` lies strictly below 0.05 µM
Data returned: yes (1)

Data request: Confirm or reject: GI50 of `C/C(=C\C=C\[C@@H](C)COC(=O)N1CCCC1(C)C)[C@H]1OC(=O)C[C@H](O)CC[C@@](C)(O)[C@@H](OC(=O)N2CCN(C)CC2)/C=C/[C@@H]1C` lies strictly below 0.05 µM
Data returned: yes (1)

Data request: Confirm or reject: GI50 of C/C(=C\C=C\C(C)c1ncccn1)[C@H]1OC(=O)C[C@H](O)CC[C@@](C)(O)[C@@H](OC(=O)N2CCN(C3CCCCCC3)CC2)/C=C/[C@@H]1C (some centres unmarked) lies strictly below 0.05 µM
Data returned: yes (1)

Data request: Confirm or reject: GI50 of C/C(=C\C=C\C(C)c1ncccn1)[C@H]1OC(=O)C[C@H](O)CC[C@@](C)(O)[C@@H](OC(=O)N2CCN(C)CC2)/C=C/[C@@H]1C (some centres unmarked) lies strictly below 0.05 µM
Data returned: no (0)

Data request: Confirm or reject: GI50 of `CC(=O)O[C@H]1/C=C/[C@H](C)[C@@H](/C(C)=C/C=C/[C@@H](C)COC(=O)N2CCCC2)OC(=O)C[C@H](O)CC[C@@]1(C)O` lies strictly below 0.05 µM
Data returned: yes (1)

Data request: Confirm or reject: GI50 of `C/C(=C\C=C\[C@@H](C)COC(=O)N1CC[C@@H](F)C1)[C@H]1OC(=O)C[C@H](O)CC[C@@](C)(O)[C@@H](OC(=O)N2CCN(C3CCCCCC3)CC2)/C=C/[C@@H]1C` lies strictly below 0.05 µM
Data returned: yes (1)

Data request: Confirm or reject: GI50 of C/C(=C\C=C\C(C)c1ccnc(N2CCCC2)n1)[C@H]1OC(=O)CCCCC[C@@H](OC(=O)N2CCN(C3CCCCCC3)CC2)/C=C/[C@@H]1C (some centres unmarked) lies strictly below 0.05 µM
Data returned: no (0)

Data request: Confirm or reject: GI50 of `C/C(=C\C=C\[C@@H](C)COC(=O)N1CCC[C@H]1CF)[C@H]1OC(=O)C[C@H](O)CC[C@H](C)[C@@H](OC(=O)N2CCN(C3CCCCCC3)CC2)/C=C/[C@@H]1C` lies strictly below 0.05 µM
Data returned: yes (1)

Data request: Confirm or reject: GI50 of `CC(=O)O[C@H]1/C=C/[C@H](C)[C@@H](/C(C)=C/C=C/[C@@H](C)COC(=O)N2CCC[C@@H]2CO)OC(=O)C[C@H](O)CC[C@@]1(C)O` lies strictly below 0.05 µM
Data returned: yes (1)

Data request: Confirm or reject: GI50 of `C/C(=C\C=C\[C@H](C)c1ccccn1)[C@H]1OC(=O)C[C@H](O)CC[C@@](C)(O)[C@@H](OC(=O)N2CCN(C3CCCCCC3)CC2)/C=C/[C@@H]1C` lies strictly below 0.05 µM
Data returned: no (0)

Data request: Confirm or reject: GI50 of `CC(=O)O[C@H]1/C=C/[C@H](C)[C@@H](/C(C)=C/C=C/[C@@H](C)COC(=O)N2CCC2)OC(=O)C[C@H](O)CC[C@@]1(C)O` lies strictly below 0.05 µM
Data returned: yes (1)

Data request: Confirm or reject: GI50 of `CC[C@H](O)[C@@H](C)[C@H]1O[C@@H]1C[C@H](C)/C=C/C=C(\C)[C@H]1OC(=O)C[C@H](O)CC[C@@](C)(OC(C)=O)[C@@H](OC(=O)N2CCNCC2)/C=C/[C@@H]1C` lies strictly below 0.05 µM
Data returned: yes (1)

Data request: Confirm or reject: GI50 of `CCO[C@]1(C)CC[C@@H](O)CC(=O)O[C@H](/C(C)=C/C=C/[C@](C)(O)C[C@H]2O[C@@H]2[C@H](C)[C@@H](O)CC)[C@@H](C)/C=C/[C@@H]1OC(=O)N1CCNCC1` lies strictly below 0.05 µM
Data returned: yes (1)

Data request: Confirm or reject: GI50 of `CCC(=O)[C@@H](C)[C@H]1O[C@@H]1C[C@@](C)(O)/C=C/C=C(\C)[C@H]1OC(=O)CC(=O)CC[C@@](C)(O)[C@@H](OC(C)=O)/C=C/[C@@H]1C` lies strictly below 0.05 µM
Data returned: no (0)

Data request: Confirm or reject: GI50 of `C/C(=C\C=C\[C@@H](C)COC(=O)N1CC[C@@H](O)C1)[C@H]1OC(=O)CCCCC[C@@H](OC(=O)N(C)C)/C=C/[C@@H]1C` lies strictly below 0.05 µM
Data returned: no (0)

Data request: Confirm or reject: GI50 of CC(=O)O[C@H]1/C=C/[C@H](C)[C@@H](/C(C)=C/C=C/C(C)c2cccc(OCC(C)C)n2)OC(=O)C[C@H](O)CC[C@@]1(C)O (some centres unmarked) lies strictly below 0.05 µM
Data returned: no (0)

Data request: Confirm or reject: GI50 of `C/C(=C\C=C\[C@@H](C)COC(=O)N1CCc2ccccc21)[C@H]1OC(=O)C[C@H](O)CC[C@@](C)(O)[C@@H](OC(=O)N2CCN(C)CC2)/C=C/[C@@H]1C` lies strictly below 0.05 µM
Data returned: yes (1)

Data request: Confirm or reject: GI50 of `C/C(=C\C=C\[C@@H](C)COC(=O)N1CCCC1)[C@H]1OC(=O)C[C@H](O)CC[C@H](C)[C@@H](OC(=O)N2CCN(C)CC2)/C=C/[C@@H]1C` lies strictly below 0.05 µM
Data returned: yes (1)

Data request: Confirm or reject: GI50 of `C/C(=C\C=C\CCOC(=O)N1CCCC1)[C@H]1OC(=O)C[C@H](O)CC[C@@](C)(O)[C@@H](OC(=O)N2CCN(C)CC2)/C=C/[C@@H]1C` lies strictly below 0.05 µM
Data returned: no (0)

Data request: Confirm or reject: GI50 of C/C(=C\C=C\C(C)c1cnccn1)[C@H]1OC(=O)C[C@H](O)CC[C@@](C)(O)[C@@H](OC(=O)N2CCN(C3CCCCCC3)CC2)/C=C/[C@@H]1C (some centres unmarked) lies strictly below 0.05 µM
Data returned: yes (1)

Data request: Confirm or reject: GI50 of `C/C(=C\C=C\[C@@H](C)c1ccccn1)[C@H]1OC(=O)C[C@H](O)CC[C@@](C)(O)[C@@H](OC(=O)N2CCC(N3CC4CCC(C3)C4(F)F)CC2)/C=C/[C@@H]1C` lies strictly below 0.05 µM
Data returned: no (0)

Data request: Confirm or reject: GI50 of `C/C(=C\C=C\[C@@H](C)CNC(=O)N1CCCC1)[C@H]1OC(=O)C[C@H](O)CC[C@@](C)(O)[C@@H](OC(=O)N2CCN(C)CC2)/C=C/[C@@H]1C` lies strictly below 0.05 µM
Data returned: no (0)

Data request: Confirm or reject: GI50 of `CC(=O)O[C@H]1/C=C/[C@H](C)[C@@H](/C(C)=C/C=C/[C@@H](C)COC(=O)N2CC[C@H](O)C2)OC(=O)C[C@H](O)CC[C@@]1(C)O` lies strictly below 0.05 µM
Data returned: yes (1)
